Target: T1, NativeRPtag(large)_with_Tags_and_Cys (Thermoanaerobacter tengcongensis)
T1 construct: Unlabeled in anisotropy assays; coupled through the engineered N-terminal Cys to SulfoLink agarose or maleimide plates in column, pull-down and ELISA assays
T1 chain: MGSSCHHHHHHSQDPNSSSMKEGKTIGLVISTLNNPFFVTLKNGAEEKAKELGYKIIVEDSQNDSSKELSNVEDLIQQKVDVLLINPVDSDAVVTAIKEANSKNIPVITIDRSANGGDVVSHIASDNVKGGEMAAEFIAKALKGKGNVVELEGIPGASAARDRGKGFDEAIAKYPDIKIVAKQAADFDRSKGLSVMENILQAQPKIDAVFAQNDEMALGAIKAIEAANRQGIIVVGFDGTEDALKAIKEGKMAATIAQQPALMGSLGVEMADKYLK
Experiment: fluorescence anisotropy; TritonX-100 (2%)
No end group written: not given here. *: point of attachment. RhodamineB = CCN(CC)c1ccc2c(-c3ccccc3C(=O)*)c3ccc(=[N+](CC)CC)cc-3oc2c1
READOUT KIND: Kd (nM)
Numbers only; they are read as nM.

>>> result_number("RhodamineB-GEKIPNFIPAELKLITKENVQ (Synthetic peptide) [native RPtag(small)]")
0.64

Reported Kd for RhodamineB-KIANFIPAELKLITKANVQ (also: also used unlabeled as competitor, Rhodamine labeled in the Kd assays; also called RPtag(small) (tight)) [RPtag(small) Nd2, p5a, e18a] was 0.046

The reported numbers originate from patent US20200102347A1.
